Test system: 7,8-diaminopelargonic acid synthase BioA (Mycobacterium tuberculosis)
PROCEDURE TEXT: M. tuberculosis BioA enzyme inhibitors, primary screen, biochemical, plate reader, single point, HTS (AID 602481)
CONDITION LABEL: purified M. tuberculosis BioA enzyme, at 9.99 µM
Hit rate of the full screen: of about 360,000 compounds, about 340 (0.094%) were called active. No stated cut-off is given here; in the data, active means inhibition above about 40%; inconclusive means no clear call, values can overlap the other calls; inactive means below that. The list comes from a sample in which actives are over-represented; it also holds close analogues and randomly drawn compounds.
Outcome codes: active, inactive

| MOLECULE | LABEL VALUE |
| --- | --- |
| O=C(C[C@H]1C[C@@H]2c3cc(NC(=O)CC4CC4)ccc3O[C@@H]2[C@@H](CO)O1)NCc1cc(F)ccc1F | inactive |
| Cn1c(=O)c2c(nc(OCc3cccnc3)n2Cc2ccccc2)n(C)c1=O | active |
| C=CCn1c(SCC(=O)NCCCO)nc2sc3c(c2c1=O)CCC3 | inactive |
| COc1ccc(NC(=O)N(C)C[C@H]2OCCCC[C@H](C)Oc3ccc(NC(=O)c4ccncc4)cc3C(=O)N([C@H](C)CO)C[C@@H]2C)cc1 | inactive |
| C=C(C)CSc1nc(N)c2c3c(sc2n1)CCC3 | active |
| CN1C(=O)c2cc(NC(=O)c3ccc(F)c(F)c3)ccc2OC[C@H]2O[C@@H](CC(=O)N3CCCCC3)CC[C@H]21 | inactive |
| O=C(c1ccccc1)N1CC[C@H]2[C@H](CO)Nc3ccc(-c4ccc(F)cc4)cc3[C@H]21 | inactive |
| COCC#Cc1cnc2c(c1)C(=O)N([C@H](C)CO)C[C@H](C)[C@H](CN(C)Cc1ccc(-c3ccccc3)cc1)O2 | inactive |
| CCC(=O)N1C[C@@H](C)[C@@H](OC)CN(C)C(=O)c2ccc(NC(=O)C3CCCCC3)cc2OC[C@H]1C | inactive |
| C[C@@H]1CN([C@H](C)CO)C(=O)c2cc(NC(=O)NC3CCCCC3)ccc2O[C@@H](C)CCCCO[C@H]1CN(C)S(C)(=O)=O | inactive |
| CO[C@@H](CN(C)S(=O)(=O)c1ccccc1)[C@@H](C)CN(Cc1ccccc1Cl)[C@H](C)CO | inactive |
| Cc1cc(C(=O)Nc2cccc3c2O[C@@H](CN(C)Cc2ccc4c(c2)OCO4)[C@@H](C)CN([C@@H](C)CO)C3=O)n(C)n1 | inactive |
| CO[C@H]1CN(C)C(=O)c2ccc(NC(=O)c3cccc(Oc4ccccc4)c3)cc2OC[C@@H](C)NC[C@H]1C | inactive |
| C[C@]12CCC(=O)C=C1C=CC1C2CC[C@@]2(C)C1CC[C@@]21CCC(=O)O1 (stereo partly drawn) | inactive |
| O=C(C[C@@H]1C[C@H]2c3cc(NC(=O)CC4CC4)ccc3O[C@H]2[C@@H](CO)O1)NCc1ccc2c(c1)OCO2 | inactive |
| C=CCOc1nc2c(c(=O)n(C)c(=O)n2C)n1Cc1ccc(Cl)cc1Cl | inactive |
| CC(C)(C)C1CCc2c(sc3nc(SCC(N)=O)nc(N)c23)C1 (stereo not drawn) | inactive |
| CN(C)C(=O)c1cccc(-c2ccc3c(c2)[C@H]2[C@H](CCN2C(=O)c2cccnc2)[C@H](CO)N3)c1 | inactive |
| CC(C)(C)[S@@](=O)N1Cc2cc(C(=O)N3CCCCC3)nc(-c3cccc(-c4cccc(C#N)c4)c3)c2[C@H]1CCO | inactive |
| O=C(NCCN1CCCC1)[C@@H]1N[C@@H]2c3ccc(-c4ccccc4)c(=O)n3C[C@@H]2[C@H]1CO | inactive |
| CN(C)CC(=O)Nc1ccc2c(c1)[C@@H]1C[C@H](CC(=O)NCC3CC3)O[C@@H](CO)[C@@H]1O2 | inactive |
| CN1c2ccc(-c3ccccc3)cc2[C@H]2[C@H](CCN2C(=O)Cc2ccccn2)[C@H]1CO | active |
| COc1ccc(-c2ccc3c(c2)[C@@H]2[C@@H](CCN2C(=O)Cc2ccccn2)[C@H](CO)N3C)cc1 | inactive |
| CC(=O)N1[C@H](CO)[C@H]2c3ccccc3N(C(=O)c3ccc(F)cc3)C[C@H]21 | inactive |
| Cc1ccc(S(=O)(=O)N(C)C[C@@H]2Oc3c(NC(=O)NC(C)C)cccc3C(=O)N([C@H](C)CO)C[C@H]2C)cc1 | inactive |
| CN1c2ccc(-c3ccccc3F)cc2[C@H]2[C@H](CCN2C(=O)Cc2ccccn2)[C@H]1CO | inactive |
| O=C(NCC[C@@H]1CC[C@H](NS(=O)(=O)c2cccc(F)c2)[C@H](CO)O1)c1cnccn1 | inactive |
| O=C(c1cccnc1)N1CC[C@@H]2[C@@H](CO)Nc3ccc(-c4ccccc4)cc3[C@@H]21 | inactive |
| O=C(C1CCCC1)N1[C@H](CO)[C@@H]2c3ccccc3N(S(=O)(=O)c3ccccc3)C[C@@H]21 | inactive |
| C[C@@H]1CN([C@H](C)CO)C(=O)c2cc(-c3ccccc3)cnc2O[C@H]1CN(C)C(=O)Nc1ccccc1 | inactive |
| O=C(Nc1cccc(Cl)c1)N1C[C@@H]2[C@H](c3ccccc31)[C@H](CO)N2Cc1ccncc1 | inactive |
| CN1C(=O)c2cc(NS(=O)(=O)c3ccc(F)cc3)ccc2OC[C@@H]2O[C@@H](CC(=O)O)CC[C@H]21 | inactive |
| C[C@@H]1CN([C@@H](C)CO)C(=O)c2cccc(NS(=O)(=O)c3ccc(F)cc3)c2O[C@H]1CN(C)S(=O)(=O)c1cccs1 | inactive |

====

# inhibition per entry
Tested on: 7,8-diaminopelargonic acid synthase BioA (Mycobacterium tuberculosis)
PROCEDURE TEXT: M. tuberculosis BioA enzyme inhibitors, primary screen, biochemical, plate reader, single point, HTS (AID 602481)
CONDITION LABEL: purified M. tuberculosis BioA enzyme, at 9.99 µM, active compounds read high
The whole screen tested about 360,000 compounds, of which about 340 (0.094%) were called active. The list comes from a sample in which actives are over-represented; it also holds close analogues and randomly drawn compounds.

| SMILES TEXT | SYSTEM TESTED | inhibition, % |
| --- | --- | --- |
| O=C(C[C@@H]1C=C[C@@H](NC(=O)C2CC2)[C@H](CO)O1)NCCCN1CCOCC1 | 7,8-diaminopelargonic acid synthase BioA (Mycobacterium tuberculosis) | -6.18 |
| Cc1ccc(Cn2c(C)c3cnn(CC(=O)NCc4ccccn4)c(=O)c3c2C)cc1 | 7,8-diaminopelargonic acid synthase BioA (Mycobacterium tuberculosis) | 8.47 |
| CCCOc1cccc(C(=O)Nc2nnn(CCC)n2)c1 | 7,8-diaminopelargonic acid synthase BioA (Mycobacterium tuberculosis) | -3.8 |
| Cc1ccccc1S(=O)(=O)N(C)C[C@@H]1OCc2ccccc2-c2c(n(C)c3ccccc23)C(=O)N([C@H](C)CO)C[C@H]1C | 7,8-diaminopelargonic acid synthase BioA (Mycobacterium tuberculosis) | -1.26 |
| C[C@@H]1CN([C@@H](C)CO)C(=O)Cc2cc(NC(=O)C3CCCCC3)ccc2O[C@H]1CN(C)C(=O)Nc1ccccc1 | 7,8-diaminopelargonic acid synthase BioA (Mycobacterium tuberculosis) | 0.073 |
| Cc1ccc(S(=O)(=O)N(C)C[C@@H]2Oc3c(NC(=O)C4CC4)cccc3C(=O)N([C@H](C)CO)C[C@H]2C)cc1 | 7,8-diaminopelargonic acid synthase BioA (Mycobacterium tuberculosis) | -0.505 |
| C[C@@H]1CN([C@@H](C)CO)C(=O)c2c(c3ccccc3n2C)-c2ccccc2CO[C@H]1CN(C)Cc1cccc(C(=O)O)c1 | 7,8-diaminopelargonic acid synthase BioA (Mycobacterium tuberculosis) | -1.04 |
| O=C(CN1CCOCC1)N1CCCCN2[C@H](CO)[C@H](c3ccc(Br)cc3)[C@H]2C1 | 7,8-diaminopelargonic acid synthase BioA (Mycobacterium tuberculosis) | 4.49 |
| O=C(C[C@@H]1CC[C@@H]2[C@H](COC[C@H](O)CN2S(=O)(=O)c2ccc(Oc3ccccc3)cc2)O1)NCCN1CCCCC1 | 7,8-diaminopelargonic acid synthase BioA (Mycobacterium tuberculosis) | 9.19 |
| Cc1c2cnn(CC(=O)NCc3ccccn3)c(=O)c2c(C)n1Cc1ccc(Cl)cc1 | 7,8-diaminopelargonic acid synthase BioA (Mycobacterium tuberculosis) | 86.8 |
| O=C(C[C@@H]1C[C@@H]2c3cc(NC(=O)C4CCC4)ccc3O[C@@H]2[C@@H](CO)O1)NCc1ccccc1 | 7,8-diaminopelargonic acid synthase BioA (Mycobacterium tuberculosis) | -1.79 |
| O=C(Cn1ncc2c3ccccc3n(Cc3ccccc3)c2c1=O)NCc1ccccn1 | 7,8-diaminopelargonic acid synthase BioA (Mycobacterium tuberculosis) | -3.36 |

====

System: 7,8-diaminopelargonic acid synthase BioA (Mycobacterium tuberculosis)
PROCEDURE TEXT: M. tuberculosis BioA enzyme inhibitors, primary screen, biochemical, plate reader, single point, HTS (AID 602481)
CONDITION LABEL: purified M. tuberculosis BioA enzyme, at 9.99 µM
Out of some 360,000 compounds screened, about 340 (0.094%) were called active. No stated cut-off is given here; in the data, active means inhibition above about 40%; inconclusive means no clear call, values can overlap the other calls; inactive means below that. Many of the other results were omitted from the sample, so actives are more common in it than they were.
Outcome codes: t for active, f for inactive

| COMPOUND | LABEL VALUE |
| --- | --- |
| CN1c2ccc(-c3cccc(C#N)c3)cc2[C@@H]2[C@@H](CCN2C(=O)C2CCC2)[C@@H]1CO | f |
| C[C@H](CO)N1C[C@H](C)[C@@H](CN(C)C(=O)Cc2cccnc2)Oc2ncc(-c3ccncc3)cc2C1=O | f |
| Cc1cc(=O)oc2c(C)c(OC(C)C(=O)NC3CCN(Cc4ccccc4)CC3)ccc12 (centres undefined) | f |
| Cc1c(OC(C)C(=O)NCC2CCC(C(=O)O)CC2)ccc2c1oc(=O)c1ccccc12 (centres undefined) | t |
| C[C@@H]1CN([C@@H](C)CO)C(=O)c2cc(NS(=O)(=O)c3cn(C)cn3)ccc2O[C@@H](C)CCCCO[C@H]1CN(C)S(=O)(=O)c1cccs1 | f |
| COc1c(C=O)c(CCN(C)C(=O)c2ccc(F)cc2)cc2c1OCO2 | t |
| COCC(=O)N1[C@H](CO)[C@@H](c2ccccc2)[C@H]1CN(C)C(=O)c1ccncc1 | f |
| CC(C)CC#Cc1ccc2c(c1)O[C@H](CN(C)Cc1ccccc1F)[C@@H](C)CN([C@@H](C)CO)S2(=O)=O | f |
| C[C@H]1CN([C@@H](C)CO)C(=O)c2cc(C3=CCCC3)cnc2O[C@@H]1CN(C)Cc1cccnc1 | f |
| C[C@@H]1CCCCO[C@@H](CN(C)C(=O)Nc2ccc3c(c2)OCO3)[C@H](C)CN([C@H](C)CO)C(=O)c2cc(NC(=O)CCCN(C)C)ccc2O1 | f |
| C[C@H]1CN([C@@H](C)CO)S(=O)(=O)c2ccc(C#Cc3ccccc3)cc2O[C@H]1CN(C)S(=O)(=O)c1cn(C)cn1 | f |
| CO[C@@H](CN(C)C(=O)c1ccc2c(c1)OCO2)[C@@H](C)CN([C@H](C)CO)S(=O)(=O)c1ccccc1 | f |
| CCCN(C)C[C@@H]1OCc2cnnn2CCCC(=O)N([C@H](C)CO)C[C@@H]1C | f |
| O=C(Nc1ccc2c(c1)OCO2)N[C@H]1CC[C@H](CCNC(=O)C2CCC2)O[C@@H]1CO | f |
| Cc1nc2nc(SCC(=O)NCc3ccco3)nn2c(C)c1Cc1ccccc1 | t |
| C[C@H]1CN([C@@H](C)CO)C(=O)CCCn2cc(nn2)CO[C@H]1CN(C)C(=O)Nc1cccc(C(F)(F)F)c1 | f |
| Cc1c(OC(C)C(=O)N[C@@H](Cc2ccccc2)C(=O)O)ccc2c3c(c(=O)oc12)CCCC3 (some centres undefined) | f |
| Cc1ccc(S(=O)(=O)N(C)C[C@@H]2Oc3c(NC(=O)C4CC4)cccc3C(=O)N([C@H](C)CO)C[C@@H]2C)cc1 | f |
| COc1ccc(C(=O)N(C)Cc2ccc(OC)c(OC)c2OC)cc1S(=O)(=O)N1CCOCC1 | f |
| COc1cccc(S(=O)(=O)N[C@H]2C=C[C@H](CC(=O)NCc3ccc(Cl)cc3)O[C@@H]2CO)c1 | f |
| C[C@H](CO)N1C[C@H](C)[C@@H](CN(C)S(=O)(=O)c2cn(C)cn2)Oc2c(NC(=O)C3CC3)cccc2C1=O | f |
| Cc1ccc(Cc2c(C)nc3nc(SCC(=O)NCCN4CCOCC4)nn3c2C)cc1 | t |
| CNC(=O)C[C@H]1CC[C@H]2[C@@H](COc3ccc(NS(=O)(=O)c4ccc(F)cc4)cc3C(=O)N2C)O1 | f |
| COc1ccc(S(=O)(=O)N(C)C[C@@H]2OCCCC[C@H](C)Oc3ccc(NC(=O)Nc4ccccc4)cc3C(=O)N([C@H](C)CO)C[C@H]2C)cc1 | f |
| O=C(CSc1n[nH]c(-c2cccnc2)n1)Nc1ccnc2ccccc12 | t |
| COc1cc(OC)cc(-c2nc3nc(C)c(CCC(=O)NCc4ccco4)c(C)n3n2)c1 | f |
| Cc1nc(=O)c(-c2ccccc2)c(C)n1-c1ccc(Br)cc1 | t |
| C[C@@H](O)C#Cc1ccc2c(c1)O[C@@H](CN(C)Cc1cccnc1)[C@@H](C)CN([C@@H](C)CO)S2(=O)=O | f |
| C[C@H]1CN([C@@H](C)CO)C(=O)c2cc(Br)cnc2O[C@H]1CN(C)CC1CCCC1 | f |
| C[C@H](CO)N1C[C@H](C)[C@@H](CN(C)CC2CCCCC2)Oc2ccc(NS(=O)(=O)c3cccs3)cc2CC1=O | f |
| C[C@H]1CN([C@@H](C)CO)C(=O)CCCn2nncc2CO[C@H]1CN(C)Cc1cccc(C(=O)O)c1 | f |
| CN(C)c1ccc2c(c1)[C@H]1C[C@H](CC(=O)NCc3ccc(Cl)cc3)O[C@H](CO)[C@H]1O2 | f |
| Cc1noc(C)c1NC(=O)N(C)C[C@H]1Oc2ccc(NC(=O)Nc3ccc(C(F)(F)F)cc3)cc2CC(=O)N([C@@H](C)CO)C[C@@H]1C | f |
| O=C(Cn1cc2c(n1)CCCCC2)NCCN1CCOCC1 | f |
